# cell viability per record follows
system: MARIMO; experiment: cell viability relative to vehicle control; higher = less cytotoxic; settings: 10 µM; SRSF2 genotype: SRSF2 wt/wt;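 further: after 48 h exposure read by CellTiter-Glo luminescence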
Structures can show the parent of a compound that is named as a salt.
The answer is to be given in %; state only the numeric part.

CC(C)(C)C(=O)N1N=CC[C@H]1c1ccccc1    108
Cc1cc(/C=C2/SC(=S)NC2=O)c(C)n1-c1cccnc1    102
NS(=O)(=O)NCCNc1nonc1/C(=N/O)Nc1ccc(F)c(Br)c1    104
CC(=O)OCC(CCn1cnc2cnc(N)nc21)COC(C)=O    104
COc1ccc2cc3[n+](cc2c1OC)CCc1cc2c(cc1-3)OCO2 [Berberine Sulfate]    59.5
N=C(N)NC(=N)N1CCOCC1 [Moroxydine HCl]    101

(Q) Item COc1c(C)c2c(c(O)c1C/C=C(\C)CCC(=O)O)C(=O)OC2 : provide cell viability
(A) 41.6

(Q) Return cell viability (reported value) for this molecule: CN1CCN(c2ccc3nc(-c4c(N)c5c(F)cccc5[nH]c4=O)[nH]c3c2)CC1 [Dovitinib (TKI-258, CHIR-258)]
(A) 32.9

(Q) Tell us which cell viability value is on record for CS(=O)(=O)c1ccc(-c2cnc(N)c(C(=O)Nc3ccccc3)n2)cc1
(A) 110

---

Each entry below carries its reported cell viability.
tested on: MOLM14; assay: cell viability relative to vehicle control; higher = less cytotoxic; settings: 10 µM; SRSF2 genotype: SRSF2 wt/wt
Structures can show the parent of a compound that is named as a salt.
Respond numerically; units are % and should not be typed.

Some solved cases for reference:
CC(=O)OC1CC2(C)C(CC(O)C3C4(C)CCC(O)C(C)C4CCC32C)C1=C(CCC=C(C)C)C(=O)O (configuration not stated) [Fusidine]    96.8
CNC(=O)c1ccccc1Sc1ccc2c(/C=C/c3ccccn3)n[nH]c2c1 [Axitinib]    15.3
O=C1NC(=O)C(=Cc2ccc(-c3ccc(F)cc3)o2)S1 (stereo in doubt)    108
CC(C)(C)n1nc(-c2ccc(Cl)cc2)c2c(N)ncnc21    67.3

(Q) Supply reported cell viability belonging to this compound: c1ccc(-c2[nH]ncc2-c2ccnc3ccccc23)nc1
(A) 104

(Q) Indicate the recorded cell viability value for this compound: CC#Cc1cncc(-c2ccc3c(c2)C2(N=C(C)C(N)=N2)C2(CCC(OC)CC2)C3)c1 (configuration not stated)
(A) 98.9

(Q) Answer with the recorded cell viability for the compound listed here: Cc1ccc(-n2[nH]c(C)c(N=Nc3cccc(-c4cccc(C(=O)O)c4)c3O)c2=O)cc1C [Eltrombopag]
(A) 74.6

(Q) Fill in reported cell viability for this entry: COc1cccc2c1C(=O)c1c(O)c3c(c(O)c1C2=O)C[C@@](O)(C(=O)CO)C[C@@H]3O[C@H]1C[C@H](N)[C@H](O[C@@H]2CCCCO2)[C@H](C)O1 [Pirarubicin]
(A) 0.13

(Q) Fill in cell viability for record CO/N=C(\C(=O)N[C@@H]1C(=O)N2C(C(=O)[O-])=C(C[n+]3cccc4c3CCCC4)CS[C@H]12)c1csc(N)n1 [Cefquinome sulfate]
(A) 95.5

(Q) Given CCCOC(C(=O)OC1CCN(C)CC1)(c1ccccc1)c1ccccc1 [Propiverine hydrochloride] , respond with its cell viability.
(A) 85.2

(Q) Could you please provide reported cell viability for O=C(/C=C/c1ccc(O)c(O)c1/C=C/c1ccc(O)c(O)c1)O[C@H](Cc1ccc(O)c(O)c1)C(=O)O [Salvianolic acid A] ? Thanks!
(A) 62.1

(Q) Give cell viability for Nc1nc(CC(=O)Nc2ccc(CCNC[C@H](O)c3ccccc3)cc2)cs1 [Mirabegron (YM178)]
(A) 103

(Q) Report cell viability, nothing else, for this compound: Cc1noc(-c2ccc(CSCCC(=O)O)cc2)c1NC(=O)OC(C)c1ccccc1Cl (configuration not stated)
(A) 102

(Q) Provide measured cell viability value, entry: CNCCC(Oc1ccc(C(F)(F)F)cc1)c1ccccc1 (configuration not stated) [Fluoxetine HCl]
(A) 81.6

(Q) Please supply the value of reported cell viability for the item COC(=O)c1cc(O)c(O)c(O)c1 [Methyl gallate]
(A) 104

(Q) Quickly give me recorded cell viability for CCOC(=O)OC(C)OC1=C(C(=O)Nc2ccccn2)N(C)S(=O)(=O)c2ccccc21 (configuration not stated) [Ampiroxicam]
(A) 95.9

(Q) State, in one line, measured cell viability of C[C@@H]([C@H](C)O)[C@H](N)C(=O)O [(4S)-4-Hydroxy-L-isoleucine]
(A) 102

---

tested on: MARIMO; test: cell viability relative to vehicle control; higher = less cytotoxic; conditions: 10 µM; SRSF2 genotype: SRSF2 wt/wt
Structures can show the parent of a compound that is named as a salt.
Define the label as yes (1) when cell viability is strictly less than 90% and as no (0) in all remaining cases.

Record excerpt, results attached:
CCCNC(=O)c1cn2ncnc(Nc3cc(C(=O)NC4CC4)ccc3C)c2c1C    no (0)
Cc1c(CN2CCC(Nc3ncnc4sc(CC(F)(F)F)cc34)CC2)ccc2[nH]c(C#N)cc12    yes (1)
CC[C@H]1OC(=O)[C@H](C)[C@@H](O[C@H]2C[C@@](C)(OC)[C@@H](O)[C@H](C)O2)[C@H](C)[C@@H](O[C@@H]2O[C@H](C)C[C@H](N(C)C)[C@H]2O)[C@](C)(O)C[C@@H](C)C(=O)[C@H](C)[C@@H](O)[C@]1(C)O [Erythromycin]    no (0)
O=C(O)CCCN1CCC(O[C@@H](c2ccc(Cl)cc2)c2ccccn2)CC1 [Bepotastine Besilate]    no (0)
CCCc1nc(C)c2c(=O)[nH]c(-c3cc(S(=O)(=O)N4CCN(CC)CC4)ccc3OCC)nn12 [Vardenafil Hydrochloride Trihydrate (Vivanza]    no (0)
C=CC(=O)N1CCN(CCCn2c(=O)c(-c3c(Cl)c(OC)cc(OC)c3Cl)cc3cnc(NC)nc32)CC1    yes (1)
Cc1cc(Nc2cc(N3CCN(C)CC3)nc(Sc3ccc(NC(=O)C4CC4)cc3)n2)n[nH]1    yes (1)
COc1cc2c(cc1OC)[C@H]1[C@@H](C)c3ccc(OC)c(OC)c3CN1CC2    yes (1)

(Q) Given the entry CC(C(=O)O)c1ccc(C(=O)c2cccs2)cc1 (stereo not drawn) , would its reported cell viability be below 90%?
(A) no (0)

(Q) Quick check: does CN(C)CC(c1ccc(O)cc1)C1(O)CCCCC1 (stereo not drawn) [Desvenlafaxine Succinate] have cell viability under 90%?
(A) no (0)

(Q) Problem: For the molecule Cc1ncc(CO)c(CO)c1O , is cell viability under 90%?
(A) no (0)

(Q) Would you kindly verify if cell viability of COc1cc2ncnc(Sc3nnc(C)s3)c2cc1OC is strictly less than 90%?
(A) yes (1)

(Q) Item CCc1cccc(CC)c1NC(=O)N1Cc2[nH]nc(NC(=O)c3ccc(N4CCN(C)CC4)cc3)c2C1 : cell viability beneath 90%, strictly?
(A) yes (1)

(Q) Here's an entry: O=C(O)CC(C(=O)O)n1c(O)c(C2=c3cc(Br)ccc3=NC2=O)sc1=S (stereo not drawn) . Is its cell viability below 90%?
(A) no (0)

(Q) Item COc1ccc([C@@H]2CC(=O)c3c(O)cc(O)cc3O2)cc1O : cell viability beneath 90%, strictly?
(A) no (0)

(Q) Lab note: cell viability threshold 90%. Does this molecule come in strictly under it? CC(C)(C)OC(=O)Nc1ccc(-c2cc(C(=O)NCCCCCCC(=O)NO)no2)cc1
(A) yes (1)

(Q) Find out if reported cell viability for N[C@@H](Cc1cc(I)c(O)c(I)c1)C(=O)O [3,5-Diiodotyrosine Dihydrate] is less than 90%
(A) no (0)

(Q) Is cell viability of O=C(O)CCc1c[nH]c2ccccc12 strictly below 90%?
(A) no (0)

(Q) Given the entry CC(C)Oc1ccc(C(=O)N[C@H](CNC(=O)CN(C)C)Cc2ccc(-c3cn4cccc([C@H](C)O)c4n3)cc2)cc1Cl , would its reported cell viability be below 90%?
(A) yes (1)

---

Reported cell viability values follow for various compounds
test system: MOLM14; assay: cell viability relative to vehicle control; higher = less cytotoxic; conditions: 10 µM; SRSF2 genotype: SRSF2 P95H/wt
Form entry: value (%) — number only.

Consider the reported cell viability for these compounds:
CCC(=O)O[C@H]1[C@H](O[C@@H]2[C@@H](C)[C@H](O[C@H]3C[C@@](C)(OC)[C@@H](O)[C@H](C)O3)[C@@H](C)C(=O)O[C@H](CC)[C@@](C)(O)[C@H](O)[C@@H](C)C(=O)[C@H](C)C[C@@]2(C)O)O[C@H](C)C[C@@H]1N(C)C [Erythromycin estolate]    96.4
CS(=O)(=O)Nc1cc2occ(NC=O)c(=O)c2cc1Oc1ccccc1    99.1
O=c1[nH]cc(F)c(=O)[nH]1    37.5
CCCC[C@@H](C=O)NC(=O)[C@H](CC(C)C)NC(=O)OCc1ccccc1    83.2
CC(=O)N1C[C@H](O)C[C@H]1C(=O)O    96.1
O=C(O)c1ccc(CN2CCC(CN[C@@H]3C[C@H]3c3ccccc3)CC2)cc1    98.7
C[S+]([O-])c1ccc(-c2nc(-c3ccc(F)cc3)c(-c3ccncc3)[nH]2)cc1 (stereo not drawn)    109

Alright, here's another compound for you.
(Q) For N#Cc1ccc(Oc2ccc3c(c2)COB3O)cc1 , write its cell viability.
(A) 68.2
